Origin of the recorded values: PubChem BioAssay (NCATS)

Test system: CP265
Assay: qHTS profiling for inhibitors of Plasmodium falciparum proliferation (AID 504749); note: nearly all actives have a fitted effect of over 60% in size
Settings: P. falciparum in erythrocytes, SYBR Green DNA, 72 h; series mostly up to 12.8 µM
Results filed as inconclusive are left out. Active and inactive are the calls of the source. Calls come from the whole dose curve; as a rule, active = well fitted inhibition curve with a large enough effect; inconclusive = small, poorly fitted or top-dose-only effect; inactive = flat fitted curve, though single readings scatter. Peptide text beside a SMILES is read from it.
Labels: yes for active, no for inactive

{"COMPOUND": "Nc1nc(NC2CC2)c2ncn([C@H]3C=C[C@@H](CO)C3)c2n1", "LABEL_VALUE": "no"}
{"COMPOUND": "O=C(N/N=C\\c1ccc([N+](=O)[O-])o1)c1ccc(O)cc1", "LABEL_VALUE": "yes"}
{"COMPOUND": "COc1cc2nc(N3CCN(C(=O)[C@@H]4COc5ccccc5O4)CC3)nc(N)c2cc1OC", "LABEL_VALUE": "no"}
{"COMPOUND": "C=CC1=C(C(=O)O)N2C(=O)[C@@H](NC(=O)/C(=N\\OCC(=O)O)c3csc(N)n3)[C@@H]2SC1", "LABEL_VALUE": "no"}
{"COMPOUND": "O=C(OC[C@@H](O)CO)c1ccccc1Nc1ccnc2cc(Cl)ccc12", "LABEL_VALUE": "no"}
{"COMPOUND": "Cn1nnnc1SCC1=C(C(=O)O)N2C(=O)[C@@H](NC(=O)[C@@H](O)c3ccccc3)[C@@H]2SC1", "LABEL_VALUE": "no"}
{"COMPOUND": "O=C(O)COCCN1CCN([C@@H](c2ccccc2)c2ccc(Cl)cc2)CC1", "LABEL_VALUE": "no"}
{"COMPOUND": "CC1(C)OC2CC(=O)OC[C@@]23C1CC(=O)[C@]1(C)C3CC[C@@]2(C)C(c3ccoc3)OC(=O)C3O[C@@]321 (some centres undefined)", "LABEL_VALUE": "no"}
{"COMPOUND": "CC(C)(C)NC[C@H](O)COc1cccc2c1CCC(=O)N2", "LABEL_VALUE": "no"}
{"COMPOUND": "C=Cc1c(C)c2cc3nc(cc4[nH]c(cc5nc(cc1[nH]2)C(C)=C5CCC(=O)O)c(CCC(=O)OC)c4C)[C@@]1(C)C3=CC=C(C(=O)OC)[C@H]1C(=O)OC (tested in a mixture with another compound)", "LABEL_VALUE": "yes"}
{"COMPOUND": "CC1(C)S[C@H]2C(NC(=O)[C@@H](N)c3ccc(O)cc3)C(=O)N2[C@@H]1C(=O)O (some centres undefined)", "LABEL_VALUE": "no"}
{"COMPOUND": "CC1(C)SC2C(N3C(=O)C(c4ccccc4)NC3(C)C)C(=O)N2C1C(=O)O (centres undefined)", "LABEL_VALUE": "no"}
{"COMPOUND": "CN(C/C=C\\c1ccccc1)Cc1cccc2ccccc12", "LABEL_VALUE": "no"}
{"COMPOUND": "CN(C)CCc1c[nH]c2ccc(CC3COC(=O)N3)cc12 (centres undefined)", "LABEL_VALUE": "no"}
{"COMPOUND": "NS(=O)(=O)c1cc2c(cc1Cl)N[C@@H](CC1CCCC1)NS2(=O)=O", "LABEL_VALUE": "no"}
{"COMPOUND": "O=C(O)[C@@H]1CCCN1", "LABEL_VALUE": "no"}
{"COMPOUND": "CC(C)(C)NC[C@H](O)COc1cccc2c1C[C@@H](O)[C@@H](O)C2", "LABEL_VALUE": "no"}
{"COMPOUND": "COC(=O)C(Cc1ccccc1)NC(=O)C(N)CC(=O)O (stereo not drawn) (H-Asp-Phe-OMe; configuration not given here)", "LABEL_VALUE": "no"}
{"COMPOUND": "CN(C)CCOC(=O)[C@@H](c1ccccc1)C1(O)CCCC1", "LABEL_VALUE": "no"}
{"COMPOUND": "COc1cc(N[C@@H](C)CCCN)c2ncccc2c1", "LABEL_VALUE": "yes"}
{"COMPOUND": "CNC[C@H](O)c1ccc(OC(=O)C(C)(C)C)c(OC(=O)C(C)(C)C)c1", "LABEL_VALUE": "no"}
{"COMPOUND": "OCC1OC(n2cnc3c(=S)nc[nH]c32)C(O)C1O (centres undefined)", "LABEL_VALUE": "no"}
{"COMPOUND": "CCCCC[C@H](O)/C=C\\[C@@H]1[C@H](O)CC(=O)[C@@H]1CCCCCCC(=O)O", "LABEL_VALUE": "no"}
{"COMPOUND": "CC(=C(CCOP(=O)(O)O)SC(=O)c1ccccc1)N(C=O)Cc1cnc(C)nc1N", "LABEL_VALUE": "no"}
